# credit: the supplement of paper PMC4862054

# System: SK-BR-3
# measurement-notes: normalised viability (% of control), CellTiter-Blue; higher = more viable cells (about 100 = DMSO control)
# condition-summary: 100 nM; incubation time: 72 h
reported-endpoint: normalised viability (%)
Numbers only, in %.

O=C(O)C(=O)O.[NH-][C@@H]1CCCC[C@H]1[NH-].[Pt+2] = 94
Nc1nc(F)nc2c1ncn2[C@@H]1O[C@H](CO)[C@@H](O)[C@@H]1O = 99.9
O=C(Cc1ccc(-c2ccc(OCCN3CCOCC3)cc2)cn1)NCc1ccccc1 = 19.3

The recorded normalised viability for `N#Cc1ccc(C(c2ccc(C#N)cc2)n2cncn2)cc1` is 83

* * *

# Tested on: MFM-223
# measurement-notes: drug sensitivity score (DSS), CellTox Green (DSS (AUC-based score)); higher = stronger drug effect (viability inhibition or cytotoxicity); extreme values may be limits of the assay
# condition-summary: incubation time: 72 h
Field: drug sensitivity score. Provide a value for each of the compounds that follow.
Numbers only.

Field: example entries. Status: answers known.
CC[C@H](Nc1ncnc2[nH]cnc12)c1nc2cccc(F)c2c(=O)n1-c1ccccc1 = 0
CCc1cncnc1N1CCN(Cc2nc3ccc(C(F)(F)F)cc3[nH]2)CC1 = 0
Nc1nc2[nH]cc(CCc3ccc(C(=O)N[C@@H](CCC(=O)O)C(=O)O)cc3)c2c(=O)[nH]1 = 0

Count: 3. Required value per item: drug sensitivity score.
1. COc1cc2c(NC3CCN(C(C)C)CC3)nc(C3CCCCC3)nc2cc1OCCCN1CCCC1
2. Oc1ncc(N(CCCl)CCCl)c(O)n1
3. Nc1ccccc1NC(=O)c1ccc(CNC(=O)OCc2cccnc2)cc1

3.4
0
1.09

The compound listed as `CCCCC(=O)OCC(=O)[C@]1(O)Cc2c(O)c3c(c(O)c2[C@@H](O[C@H]2C[C@H](NC(=O)C(F)(F)F)[C@H](O)[C@H](C)O2)C1)C(=O)c1c(OC)cccc1C3=O` shows drug sensitivity score equal to 0

* * *

# Tested on: HCC1143
# measurement-notes: normalised response (% of control), CellTox Green; higher = less cell death (100 = DMSO, 0 = benzethonium chloride kill control)
# condition-summary: incubation time: 72 h
For each of the compounds below, state its normalised response.
Answers without a unit are incomplete; give the number and then its unit.

Some solved cases for reference:
CC1=C(/C=C/C(C)=C/C=C/C(C)=C/C(=O)O)C(C)(C)CCC1 [Tretinoin] (10000 nM) = 84.1%
O=C(O)C1(C(=O)O)CCC1.[NH2-].[NH2-].[Pt+2] [Carboplatin] (100 nM) = 89.6%
CC[C@@H]1C(=O)N(C)c2cnc(Nc3ccc(C(=O)NC4CCN(C)CC4)cc3OC)nc2N1C1CCCC1 [BI 2536] (1000 nM) = 113%
O=C(O)CCCCC(CCSCc1ccccc1)SCc1ccccc1 (stereo not drawn) [CPI-613] (10000 nM) = 92.7%

Would you mind listing normalised response for each of the following compounds?
1. COc1cc2nccc(Oc3ccc(NC(=O)Nc4cc(C)on4)c(Cl)c3)c2cc1OC [Tivozanib] (10000 nM)
2. C[C@H]1C[C@@H]2[C@H]([C@@H](O)C[C@@]3(C)[C@H]2CC[C@]3(O)C(=O)CO)[C@@]2(C)C=CC(=O)C=C12 [Methylprednisolone] (1000 nM)
3. CCc1cncnc1N1CCN(Cc2nc3ccc(C(F)(F)F)cc3[nH]2)CC1 (100 nM)
4. C=CC(=O)Nc1cc2c(Nc3ccc(F)c(Cl)c3)ncnc2cc1OCCCN1CCOCC1 [Canertinib] (100 nM)

110%
108%
118%
94.3%

Hi team, please reply with normalised response for each item in this list.
1. Nc1ncn([C@H]2C[C@H](O)[C@@H](CO)O2)c(=O)n1 [Decitabine] (10000 nM)
2. O=C(O)C(=O)O.[NH-][C@@H]1CCCC[C@H]1[NH-].[Pt+2] [Oxaliplatin] (100 nM)
3. O=C(O)CCCCC(CCSCc1ccccc1)SCc1ccccc1 (stereo not drawn) [CPI-613] (100 nM)
4. CC[C@@H]1C(=O)N(C)c2cnc(Nc3ccc(C(=O)NC4CCN(C)CC4)cc3OC)nc2N1C1CCCC1 [BI 2536] (100 nM)
5. COc1cc([C@@H]2c3cc4c(cc3[C@@H](O[C@@H]3O[C@@H]5CO[C@@H](c6cccs6)O[C@H]5[C@H](O)[C@H]3O)[C@H]3COC(=O)[C@H]23)OCO4)cc(OC)c1O [Teniposide] (10000 nM)

1. 117%
2. 89.3%
3. 73.1%
4. 79.2%
5. 74.5%

* * *

# System: HDQ-P1
# measurement-notes: normalised viability (% of control), CellTiter-Blue; higher = more viable cells (about 100 = DMSO control)
# condition-summary: 30 nM; incubation time: 72 h
reported-endpoint: normalised viability (%)
Numbers only, in %.

Solved cases (4 shown):
O=C(O)C1(C(=O)O)CCC1.[NH2-].[NH2-].[Pt+2] [Carboplatin] = 107
Nc1nc2[nH]cc(CCc3ccc(C(=O)N[C@@H](CCC(=O)O)C(=O)O)cc3)c2c(=O)[nH]1 [Pemetrexed] = 100
N#Cc1ccc(C(c2ccc(C#N)cc2)n2cncn2)cc1 [Letrozole] = 79.5
C=CC(=O)Nc1cc2c(Nc3ccc(F)c(Cl)c3)ncnc2cc1OCCCN1CCOCC1 [Canertinib] = 90.6

We next turn to a different compound, shown below.
Reported normalised viability for COc1cc([C@@H]2c3cc4c(cc3[C@@H](O[C@@H]3O[C@@H]5CO[C@@H](c6cccs6)O[C@H]5[C@H](O)[C@H]3O)[C@H]3COC(=O)[C@H]23)OCO4)cc(OC)c1O [Teniposide] was 113

* * *

# System: BT-549
# measurement-notes: drug sensitivity score (DSS), CellTiter-Glo (DSS (AUC-based score)); higher = stronger drug effect (viability inhibition or cytotoxicity); extreme values may be limits of the assay
# condition-summary: incubation time: 72 h
reported-endpoint: drug sensitivity score
Give bare numbers.

O=C(O)C(=O)O.[NH-][C@@H]1CCCC[C@H]1[NH-].[Pt+2] = 0

Quick request: drug sensitivity score for each listed item, please.
1. O=C(/C=C/c1cccnc1)NCCCCC1CCN(C(=O)c2ccccc2)CC1
2. CNC(=O)c1cc(Oc2ccc(NC(=O)Nc3cc(C(C)(C)C)nn3-c3ccc4ncccc4c3)c(F)c2)ccn1
3. O=C(Cc1ccc(-c2ccc(OCCN3CCOCC3)cc2)cn1)NCc1ccccc1

[0, 0, 16.3]

* * *

Can you tell me drug sensitivity score for the items I'm about to list?
# Tested on: Hs578T
# measurement-notes: drug sensitivity score (DSS), CellTiter-Blue viability (DSS (AUC-based score)); higher = stronger viability inhibition; extreme values may be limits of the assay
# condition-summary: incubation time: 72 h
Answers are plain numbers.

Look up drug sensitivity score for the entries below, preserving their order.
1. Cc1ccc(-c2cc(C(F)(F)F)nn2-c2ccc(S(N)(=O)=O)cc2)cc1 [Celecoxib]
2. COc1cc2nccc(Oc3ccc(NC(=O)Nc4cc(C)on4)c(Cl)c3)c2cc1OC [Tivozanib]
3. CC[C@@H]1C(=O)N(C)c2cnc(Nc3ccc(C(=O)NC4CCN(C)CC4)cc3OC)nc2N1C1CCCC1 [BI 2536]
4. Nc1nc2[nH]cc(CCc3ccc(C(=O)N[C@@H](CCC(=O)O)C(=O)O)cc3)c2c(=O)[nH]1 [Pemetrexed]

1. 0
2. 2.98
3. 8.18
4. 0

* * *

Kindly supply the reported normalised response values for the records listed here.
# Test system: BT-474
# measurement-notes: normalised response (% of control), CellTiter-Glo; higher = more viable cells (100 = DMSO, 0 = benzethonium chloride kill control)
# condition-summary: incubation time: 72 h
Numbers only, in %.

Use the examples below as a reference point.
CC[C@@H]1C(=O)N(C)c2cnc(Nc3ccc(C(=O)NC4CCN(C)CC4)cc3OC)nc2N1C1CCCC1 [BI 2536] (10 nM) = 74.3
CNC(=O)c1cc(Oc2ccc(NC(=O)Nc3cc(C(C)(C)C)nn3-c3ccc4ncccc4c3)c(F)c2)ccn1 [Rebastinib] (10 nM) = 102
Nc1ncn([C@H]2C[C@H](O)[C@@H](CO)O2)c(=O)n1 [Decitabine] (100 nM) = 103
CC[C@H](C)C(=O)O[C@H]1C[C@H](O)C=C2C=C[C@H](C)[C@H](CC[C@@H](O)C[C@@H](O)CC(=O)O)[C@H]21 [Pravastatin] (100 nM) = 99.2
CCCCC(=O)OCC(=O)[C@]1(O)Cc2c(O)c3c(c(O)c2[C@@H](O[C@H]2C[C@H](NC(=O)C(F)(F)F)[C@H](O)[C@H](C)O2)C1)C(=O)c1c(OC)cccc1C3=O [Valrubicin] (50 nM) = 98.2

# context switch: different molecule, same normalised response
normalised response in this record for COc1cc2c(NC3CCN(C(C)C)CC3)nc(C3CCCCC3)nc2cc1OCCCN1CCCC1 [UNC0638] (100 nM) : 94.1
